- ASSAY TARGET: Ba/F3-FGFR1-transfected cells (Homo sapiens)
- Construct: BAF3-FGFR1 (MIN IL3) pIC50; other: minus IL3
- Sequence (P11362 whole entry, change not shown): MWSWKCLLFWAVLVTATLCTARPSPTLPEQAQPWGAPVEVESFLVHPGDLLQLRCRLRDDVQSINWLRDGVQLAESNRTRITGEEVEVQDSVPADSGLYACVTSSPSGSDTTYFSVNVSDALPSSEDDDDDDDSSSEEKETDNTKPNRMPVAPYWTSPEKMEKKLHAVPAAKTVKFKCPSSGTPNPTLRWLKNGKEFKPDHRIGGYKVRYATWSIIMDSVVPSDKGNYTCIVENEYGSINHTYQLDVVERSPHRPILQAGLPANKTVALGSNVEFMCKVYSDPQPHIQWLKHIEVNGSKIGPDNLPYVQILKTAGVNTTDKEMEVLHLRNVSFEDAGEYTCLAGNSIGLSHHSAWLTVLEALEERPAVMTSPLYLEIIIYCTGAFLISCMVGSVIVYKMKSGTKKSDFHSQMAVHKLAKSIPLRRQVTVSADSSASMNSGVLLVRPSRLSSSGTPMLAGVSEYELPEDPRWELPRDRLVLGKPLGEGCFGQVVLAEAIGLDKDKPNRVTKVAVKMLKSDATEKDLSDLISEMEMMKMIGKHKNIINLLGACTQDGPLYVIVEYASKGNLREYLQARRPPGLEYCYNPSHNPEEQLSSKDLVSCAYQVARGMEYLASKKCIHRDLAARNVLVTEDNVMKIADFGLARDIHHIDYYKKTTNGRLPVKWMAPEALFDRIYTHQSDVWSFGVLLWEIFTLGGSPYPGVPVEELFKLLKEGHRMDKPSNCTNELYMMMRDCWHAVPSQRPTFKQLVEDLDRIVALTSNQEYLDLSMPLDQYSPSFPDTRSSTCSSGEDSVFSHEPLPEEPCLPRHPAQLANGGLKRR
- EXPERIMENT NOTES: Ba/F3-FGFR1 (minus IL3) cellular proliferation assay, Alamar Blue
- Format: cell-based
Recorded BAF3-FGFR1 (MIN IL3) pIC50 by entry
REPORTED PROPERTY: BAF3-FGFR1 (MIN IL3) pIC50

{"COMPOUND": "COc1cc(OC)c(F)c(N(CC2CCOC2)c2ccc3ncc(-c4cnn(C)c4)nc3n2)c1 (single isomer, unassigned) [Compound 171]", "REPORTED PROPERTY": "BAF3-FGFR1 (MIN IL3) pIC50", "QUANTITATIVE RESULT": 7.10}
{"COMPOUND": "COc1cc(OC)c(F)c(N(Cc2nc[nH]c2C)c2ccc3ncc(-c4cnn(C)c4)nc3n2)c1", "REPORTED PROPERTY": "BAF3-FGFR1 (MIN IL3) pIC50", "QUANTITATIVE RESULT": 7.85}
{"COMPOUND": "COc1cc(/N=c2\\ccc3ncc(-c4cnn(C)c4)nc3n2CC(O)COC(C)C)c(F)c(OC)c1 (single isomer, unassigned)", "REPORTED PROPERTY": "BAF3-FGFR1 (MIN IL3) pIC50", "QUANTITATIVE RESULT": 7.37}
